Attribution: patent US7419966B2

Test: Toxicity in 2.2.15 cells by neutral red dye uptake
Type: cell-based
Conditions: human, 2.2.15 cells (HepG2 cells transformed with hepatitis virion), Table 4; 2.2.15 cells; read-out: Cytotoxicity IC50 ± SD
measured property: IC50

Task item: Report IC50 for Nc1ccn([C@H]2CC[C@@H](CO)O2)c(=O)n1 [β-D-DDC, 2′,3′-dideoxycytidine, reference compound] please.
Reply: 259 µM

====

Test system: hepatitis B virus in transfected HepG-2 (2.2.15) cells
Assay: Anti-HBV activity in 2.2.15 cell cultures (HBV virion DNA and replicative intermediates)
Format: cell-based
Conditions: Hepatitis B virus, HepG2 2.2.15, 216 h, read-out: HBV RI EC50 ± SD, Table 2; replicative intermediates (intracellular DNA); day 9; untreated control 87 pg/μg cell DNA
measured property: EC50 (µM)
Answers are plain numbers, in µM.

Task item: API: value(readout=EC50, system=hepatitis B virus in transfected HepG-2 (2.2.15) cells) for record Nc1ccn([C@H]2CC[C@@H](CO)O2)c(=O)n1 [β-D-DDC, 2′,3′-dideoxycytidine, reference compound]
Reply: 3.4
